Exercise: for every item that follows, state its recorded pIC50.
Tested on: MRC5 non-malignant human lung cells
protocol-notes: MTT cell viability assay, MRC-5
Assay type: cell-based
test-settings: Homo sapiens, MRC5, MRC-5, 48 hours exposure
# pIC50 is unitless: minus log10 of the molar concentration; print number only

Indicate its recorded pIC50; the molecule in question is C[C@@H](O[C@H]1O[C@@H]2CO[C@@H](c3ccccc3)O[C@@H]2[C@H](O)[C@H]1OCc1ccc(F)cc1)c1cc(C(F)(F)F)cc(C(F)(F)F)c1 3.92

For the molecule C[C@@H](O[C@H]1OCCN(Cc2n[nH]c(=O)[nH]2)[C@H]1c1ccc(F)cc1)c1cc(C(F)(F)F)cc(C(F)(F)F)c1 [Aprepitant, reference compound] , give its measured pIC50 value. 4.66

Indicate the recorded pIC50 value for this molecule: COc1ccccc1CN[C@H]1C2CCN(CC2)[C@H]1C(c1ccccc1)c1ccccc1 [CP-96345, reference compound] 4.24
